Molecular target: Human M4 (Homo sapiens)
Sequence (P08173 1-479): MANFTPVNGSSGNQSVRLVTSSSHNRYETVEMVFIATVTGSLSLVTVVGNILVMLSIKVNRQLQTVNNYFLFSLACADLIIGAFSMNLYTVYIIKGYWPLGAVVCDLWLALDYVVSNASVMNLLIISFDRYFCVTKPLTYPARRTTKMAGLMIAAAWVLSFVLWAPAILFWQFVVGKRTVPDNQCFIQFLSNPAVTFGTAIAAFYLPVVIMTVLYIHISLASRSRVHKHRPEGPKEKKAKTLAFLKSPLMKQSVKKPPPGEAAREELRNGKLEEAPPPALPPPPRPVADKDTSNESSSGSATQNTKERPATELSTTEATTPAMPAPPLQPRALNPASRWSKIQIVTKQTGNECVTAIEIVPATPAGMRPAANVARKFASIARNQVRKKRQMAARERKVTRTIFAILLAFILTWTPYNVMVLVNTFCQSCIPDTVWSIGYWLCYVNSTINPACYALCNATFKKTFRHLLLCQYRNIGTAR
Test: mAChR M4 cell-based functional calcium flux assay (human M4/Gqi5/CHO cells)
Details: decrease of the response to an EC80 concentration of acetylcholine
Method: Human, rat, or mouse M4. cDNA, along with the chimeric G protein Gqi5, were transfected into Chinese hamster ovary (CHO-K1) cells purchased from the American Type Culture Collection using Lipofectamine2000. […] Calcium flux was measured using the Functional Drug Screening System (FDSS) 6000 or 7000 (Hamamatsu Corporation, Tokyo, Japan) as an increase in the fluorescent static ratio. […] Agonist activity was analyzed as a concentration-dependent increase in calcium mobilization upon compound addition. […]
endpoint.name: IC50 (nM)

Please review the following examples before continuing.
| molecule | system.tested | IC50 [nM] |
| --- | --- | --- |
| Cc1cccnc1CN1CCC2(CC1)C[C@H]2CNc1ccc(-c2cc(F)ccc2Cl)nn1 | Human M4 (Homo sapiens) | 25.7 |
| Fc1ccc(Cl)c(-c2ccc(NCC3CC34CCN(CC35CC6CC(CC(C6)C3)C5)CC4)nn2)c1 (stereo not shown) | Human M4 (Homo sapiens) | 94.1 |
| CC(C)(C)CCN1CCC2(CC1)CC2CNc1ccc(-c2ccccc2)nn1 (stereo not shown) | Human M4 (Homo sapiens) | 17.8 |
| CC(C)(C)CCN1CCC2(CC1)CC2CNc1ccc(-c2ccc3ccncc3c2)nn1 (stereo not shown) | Human M4 (Homo sapiens) | 16 |
| Cc1nn(C)cc1-c1nnc(NCC2CC23CCN(CCC(C)(C)C)CC3)c2ccccc12 (stereo not shown) | Human M4 (Homo sapiens) | 2.55 |

I: Fc1ccc(Cl)c(-c2ccc(NC[C@@H]3CC34CCN(CC3CC5CCC3O5)CC4)nn2)c1 (stereo partly shown)
II: c1cc(N2CCOCC2)nnc1NCC1CC12CCN(CC13CC4CC(CC(C4)C1)C3)CC2 (stereo not shown)
-- ask Quick one: lower IC50, I or II ? Please respond with the label that marks your chosen entry.
-- reply I
